TEST TARGET: PI3K δ (Homo sapiens)
Construct: purchased Upstate
Sequence (O00329 whole entry): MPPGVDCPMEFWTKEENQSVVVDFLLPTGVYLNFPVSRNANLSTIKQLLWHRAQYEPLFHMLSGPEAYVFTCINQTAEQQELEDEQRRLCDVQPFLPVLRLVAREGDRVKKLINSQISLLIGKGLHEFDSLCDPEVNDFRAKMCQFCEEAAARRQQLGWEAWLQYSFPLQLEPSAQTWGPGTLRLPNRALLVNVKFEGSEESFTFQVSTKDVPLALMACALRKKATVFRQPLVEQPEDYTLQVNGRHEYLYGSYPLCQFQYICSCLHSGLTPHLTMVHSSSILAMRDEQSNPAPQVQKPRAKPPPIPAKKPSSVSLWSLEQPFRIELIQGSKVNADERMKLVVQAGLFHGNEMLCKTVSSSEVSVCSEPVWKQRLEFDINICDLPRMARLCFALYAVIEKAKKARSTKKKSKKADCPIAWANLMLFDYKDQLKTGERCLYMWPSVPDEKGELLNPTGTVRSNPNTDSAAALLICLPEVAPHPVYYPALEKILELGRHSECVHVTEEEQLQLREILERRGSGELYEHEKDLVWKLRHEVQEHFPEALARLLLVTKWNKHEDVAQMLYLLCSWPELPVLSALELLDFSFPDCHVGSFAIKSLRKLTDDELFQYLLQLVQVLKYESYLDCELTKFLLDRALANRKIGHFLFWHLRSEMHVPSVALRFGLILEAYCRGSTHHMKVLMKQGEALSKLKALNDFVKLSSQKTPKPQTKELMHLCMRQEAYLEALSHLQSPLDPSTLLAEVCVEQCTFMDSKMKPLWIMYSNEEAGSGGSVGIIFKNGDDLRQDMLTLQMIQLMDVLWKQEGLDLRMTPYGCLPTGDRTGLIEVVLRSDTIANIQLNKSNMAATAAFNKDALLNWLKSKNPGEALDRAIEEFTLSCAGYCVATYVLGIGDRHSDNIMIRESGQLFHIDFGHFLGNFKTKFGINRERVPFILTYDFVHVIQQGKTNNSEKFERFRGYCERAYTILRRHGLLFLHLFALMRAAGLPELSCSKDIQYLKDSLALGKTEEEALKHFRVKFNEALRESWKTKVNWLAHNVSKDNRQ
Sequence (P27986 whole entry partner): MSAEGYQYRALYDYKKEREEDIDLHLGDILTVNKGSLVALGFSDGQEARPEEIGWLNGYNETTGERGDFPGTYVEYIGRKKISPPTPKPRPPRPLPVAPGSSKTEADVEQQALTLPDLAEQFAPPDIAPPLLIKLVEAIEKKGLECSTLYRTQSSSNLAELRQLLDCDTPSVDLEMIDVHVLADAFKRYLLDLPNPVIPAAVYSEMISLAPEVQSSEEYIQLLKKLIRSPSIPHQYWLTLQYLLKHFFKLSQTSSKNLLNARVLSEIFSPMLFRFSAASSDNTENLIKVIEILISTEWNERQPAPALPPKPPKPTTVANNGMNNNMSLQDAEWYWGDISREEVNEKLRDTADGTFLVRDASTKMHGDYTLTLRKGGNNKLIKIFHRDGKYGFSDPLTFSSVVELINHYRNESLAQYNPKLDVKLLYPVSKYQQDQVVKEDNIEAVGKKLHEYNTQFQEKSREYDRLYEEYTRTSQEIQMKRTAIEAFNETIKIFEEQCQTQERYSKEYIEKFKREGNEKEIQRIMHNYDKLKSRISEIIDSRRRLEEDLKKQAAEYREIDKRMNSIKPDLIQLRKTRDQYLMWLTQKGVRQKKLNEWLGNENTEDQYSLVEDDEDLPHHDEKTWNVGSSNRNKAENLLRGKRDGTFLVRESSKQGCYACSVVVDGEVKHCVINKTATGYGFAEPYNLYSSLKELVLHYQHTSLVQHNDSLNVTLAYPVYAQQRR
EXPERIMENT SUMMARY: In vitro IC50, PI3K δ (p110δ/p85α inhibition assay)
Format: biochemical
CONDITION INFO: in vitro kinase assay; read-out: IC50(nM) PI3K δ
MEASURED ENDPOINT: IC50

C[C@H](Nc1ncnc2[nH]cnc12)c1cc2cccc(Cl)c2c(N2CCN(S(C)(=O)=O)CC2)n1 [Compound 64] :: < 100 nM
C[C@H](Nc1ncnc2[nH]cnc12)c1cc2cccc(Cl)c2c(OCCN2CCN(S(C)(=O)=O)CC2)n1 [Compound 74] :: < 100 nM
Cc1cccc2cc(C(C)Nc3ncnc4[nH]cnc34)nc(N3CCN(C)CC3)c12 (stereo not drawn) [Compound 19] :: < 100 nM

Query block: Please provide the recorded IC50 for CC(Nc1ncnc2[nH]cnc12)c1cc2cccc(Cl)c2c(CCN2CCN(S(C)(=O)=O)CC2)n1 (stereo not drawn) [Compound 80] , tested on PI3K δ (Homo sapiens).
Result block: < 100 nM

Query block: Please provide the recorded IC50 for CC(C)N1CCC(Oc2nc(Cn3nc(-c4cn[nH]c4)c4c(N)ncnc43)cc3cccc(Cl)c23)CC1 [Compound 57] , tested on PI3K δ (Homo sapiens).
Result block: < 100 nM

Query block: Please provide the recorded IC50 for C[C@H](Nc1ncnc2[nH]cnc12)c1cc2cccc(Cl)c2c(N2CCCC2)n1 [Compound 63] , tested on PI3K δ (Homo sapiens).
Result block: < 100 nM

Query block: Please provide the recorded IC50 for CC(Nc1ncnc2[nH]cnc12)c1cc2cccc(Cl)c2c(CCN2CCOCC2)n1 (stereo not drawn) [Compound 78] , tested on PI3K δ (Homo sapiens).
Result block: < 100 nM

Query block: Please provide the recorded IC50 for CC(Nc1ncnc2[nH]cnc12)c1cc2ccccc2c(OC2CCN(C(C)C)CC2)n1 (stereo not drawn) [Compound 35] , tested on PI3K δ (Homo sapiens).
Result block: < 1000 nM

Query block: Please provide the recorded IC50 for CCN1CCC(Oc2nc(Cn3nc(-c4cn[nH]c4)c4c(N)ncnc43)cc3cccc(Cl)c23)CC1 [Compound 56] , tested on PI3K δ (Homo sapiens).
Result block: < 1000 nM

Query block: Please provide the recorded IC50 for CC(=O)N1CCN(CCc2nc(C(C)Nc3ncnc4[nH]cnc34)cc3cccc(Cl)c23)CC1 (stereo not drawn) [Compound 81] , tested on PI3K δ (Homo sapiens).
Result block: < 1000 nM

Query block: Please provide the recorded IC50 for CN(C)c1nc(Cn2nc(-c3ccc4oc(N)nc4c3)c3c(N)ncnc32)cc2ccccc12 [Compound 2] , tested on PI3K δ (Homo sapiens).
Result block: < 100 nM

----------
Measured IC50 of individual entries
TEST TARGET: PI3K α (Homo sapiens)
Construct: purchased Upstate
Sequence (P42336 whole entry): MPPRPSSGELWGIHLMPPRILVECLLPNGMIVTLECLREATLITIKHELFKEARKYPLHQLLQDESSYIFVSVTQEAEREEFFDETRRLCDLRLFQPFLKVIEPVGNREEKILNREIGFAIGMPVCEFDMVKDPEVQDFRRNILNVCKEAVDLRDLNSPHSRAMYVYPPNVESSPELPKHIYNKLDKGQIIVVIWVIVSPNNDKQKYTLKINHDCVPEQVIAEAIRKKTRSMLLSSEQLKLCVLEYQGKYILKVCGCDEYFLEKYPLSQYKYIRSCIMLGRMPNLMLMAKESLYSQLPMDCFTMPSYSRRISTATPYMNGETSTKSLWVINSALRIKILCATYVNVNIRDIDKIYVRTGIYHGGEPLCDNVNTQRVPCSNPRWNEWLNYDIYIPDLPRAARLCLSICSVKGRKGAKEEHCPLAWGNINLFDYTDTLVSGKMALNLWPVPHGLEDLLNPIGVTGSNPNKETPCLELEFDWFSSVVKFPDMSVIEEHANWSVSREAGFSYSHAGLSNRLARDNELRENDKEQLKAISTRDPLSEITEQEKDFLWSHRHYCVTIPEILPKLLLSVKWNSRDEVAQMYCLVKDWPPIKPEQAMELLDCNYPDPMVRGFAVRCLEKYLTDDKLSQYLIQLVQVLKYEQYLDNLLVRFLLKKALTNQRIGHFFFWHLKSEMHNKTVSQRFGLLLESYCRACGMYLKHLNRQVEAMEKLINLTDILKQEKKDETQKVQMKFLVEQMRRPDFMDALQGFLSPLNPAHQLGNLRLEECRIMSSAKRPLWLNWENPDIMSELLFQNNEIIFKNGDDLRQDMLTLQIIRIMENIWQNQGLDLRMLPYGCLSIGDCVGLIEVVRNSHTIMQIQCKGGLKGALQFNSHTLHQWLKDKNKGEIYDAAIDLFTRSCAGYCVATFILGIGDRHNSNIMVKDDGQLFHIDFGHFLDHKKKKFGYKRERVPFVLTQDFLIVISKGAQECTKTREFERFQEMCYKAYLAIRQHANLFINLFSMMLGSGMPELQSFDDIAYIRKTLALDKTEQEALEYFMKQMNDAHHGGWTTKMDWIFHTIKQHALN
Sequence (P27986 whole entry partner): as the sequence (P27986 whole entry partner) above
EXPERIMENT SUMMARY: In vitro IC50, PI3K α (p110α/p85α inhibition assay)
Assay type: biochemical
CONDITION INFO: in vitro kinase assay; read-out: IC50(nM) PI3K α

Cc1cccc2cc(Cn3nc(-c4ccc5oc(N)nc5c4)c4c(N)ncnc43)nc(CCN3CCN(C)CC3)c12 [Compound 25] :: < 1000 nM
C[C@H](Nc1ncnc2[nH]cnc12)c1nc(N2CCCC2)c2c(Cl)cccc2n1 [Compound 92] :: > 10000 nM
Cc1cccc2cc(Cn3nc(-c4ccc5oc(N)nc5c4)c4c(N)ncnc43)nc(OC3CCN(C(C)C)CC3)c12 [Compound 4] :: < 1000 nM
CC(=O)N1CCN(c2nc([C@H](C)Nc3ncnc4[nH]cnc34)cc3cccc(Cl)c23)CC1 [Compound 69] :: > 10000 nM
CC(=O)N1CCC(Oc2nc(C(C)Nc3ncnc4[nH]cnc34)cc3cccc(C)c23)CC1 (stereo not shown) [Compound 47] :: > 10000 nM
CC(C)N1CCC(Oc2nc(Cn3nc(-c4cn[nH]c4)c4c(N)ncnc43)cc3cccc(Cl)c23)CC1 [Compound 57] :: > 10000 nM
CC(Nc1ncnc2[nH]cnc12)c1cc2cccc(Cl)c2c(OC2CCN(S(C)(=O)=O)CC2)n1 (stereo not shown) [Compound 54] :: > 10000 nM
C[C@H](Nc1ncnc2[nH]cnc12)c1cc2cccc(Cl)c2c(CCN2CCC2)n1 [Compound 88] :: < 10000 nM
Cc1cccc2cc(Cn3nc(-c4ccc5oc(N)nc5c4)c4c(N)ncnc43)nc(N3CCN(C)CC3)c12 [Compound 17] :: < 1000 nM
CC(Nc1ncnc2[nH]cnc12)c1cc2cccc(Cl)c2c(CCN2CCCC2)n1 (stereo not shown) [Compound 79] :: > 10000 nM

Query block: Look up IC50 for this compound: C[C@H](Nc1ncnc2[nH]cnc12)c1cc2cccc(Cl)c2c(OCC2CCN(C)CC2)n1 [Compound 73]
Result block: < 10000 nM

Query block: Look up IC50 for this compound: C[C@H](Nc1ncnc2[nH]cnc12)c1cc2cccc(Cl)c2c(OCCN2CCCC2)n1 [Compound 72]
Result block: < 10000 nM

Query block: Look up IC50 for this compound: C[C@H](Nc1ncnc2[nH]cnc12)c1nc(N2CCN(S(C)(=O)=O)CC2)c2c(Cl)cccc2n1 [Compound 94]
Result block: > 10000 nM

Query block: Look up IC50 for this compound: C[C@@H](Nc1ncnc2[nH]cnc12)c1cc2cccc(Cl)c2c(OC2CCN(S(C)(=O)=O)CC2)n1 [Compound 84]
Result block: > 10000 nM

Query block: Look up IC50 for this compound: Cc1cccc2cc(Cn3nc(-c4ccc5oc(N)nc5c4)c4c(N)ncnc43)nc(N3CCCC3)c12 [Compound 26]
Result block: < 1000 nM

Query block: Look up IC50 for this compound: C[C@H](Nc1ncnc2[nH]cnc12)c1cc2cccc(Cl)c2c(CCN2CCC(F)(F)C2)n1 [Compound 91]
Result block: < 10000 nM

Query block: Look up IC50 for this compound: CC(Nc1ncnc2[nH]cnc12)c1cc2ccccc2c(OC2CCN(C)CC2)n1 (stereo not shown) [Compound 23]
Result block: > 10000 nM

----------
TEST TARGET: PI3K δ (Homo sapiens)
Construct: purchased Upstate
EXPERIMENT SUMMARY: In vitro IC50, PI3K δ (p110δ/p85α inhibition assay)
Type: biochemical
CONDITION INFO: in vitro kinase assay; read-out: IC50(nM) PI3K δ
Measured IC50 of individual entries

Use these answered entries as a reference point.
Cc1cccc2cc(Cn3nc(-c4ccc5oc(N)nc5c4)c4c(N)ncnc43)nc(N3CCOCC3)c12 [Compound 36] :: < 100 nM
Cc1cccc2cc(Cn3nc(-c4ccc5oc(N)nc5c4)c4c(N)ncnc43)nc(N3CCN(C)CC3)c12 [Compound 17] :: < 100 nM
Cc1cccc2cc(C(C)Nc3ncnc4[nH]cnc34)nc(OCC3CCN(C)CC3)c12 (stereo not shown) [Compound 45] :: < 100 nM
C[C@H](Nc1ncnc2[nH]cnc12)c1cc2ccccc2c(N2CCN(S(C)(=O)=O)CC2)n1 [Compound 77] :: < 1000 nM
C[C@H](Nc1ncnc2[nH]cnc12)c1nc(N2CCOCC2)c2c(Cl)cccc2n1 [Compound 93] :: < 10000 nM
CCN1CCC(Oc2nc(C(C)Nc3ncnc4[nH]cnc34)cc3cccc(C)c23)CC1 (stereo not shown) [Compound 16] :: < 100 nM

Query block: Look up IC50 for this molecule: C[C@H](Nc1ncnc2[nH]cnc12)c1cc2ccccc2c(-c2cccnc2)n1 [Compound 76]
Result block: < 1000 nM

Query block: Look up IC50 for this molecule: C[C@H](Nc1ncnc2[nH]cnc12)c1nc(OCCN2CCCC2)c2c(Cl)cccc2n1 [Compound 95]
Result block: < 100 nM

Query block: Look up IC50 for this molecule: CC(Nc1ncnc2[nH]cnc12)c1cc2cccc(Cl)c2c(OC2CCN(S(C)(=O)=O)CC2)n1 (stereo not shown) [Compound 54]
Result block: < 1000 nM

Query block: Look up IC50 for this molecule: Cc1cccc2cc(Cn3nc(-c4cn[nH]c4)c4c(N)ncnc43)nc(OC3CCNCC3)c12 [Compound 9]
Result block: < 100 nM

Query block: Look up IC50 for this molecule: Cc1cccc2cc(C(C)Nc3ncnc4[nH]cnc34)nc(Oc3ccccc3)c12 (stereo not shown) [Compound 24]
Result block: < 1000 nM

Query block: Look up IC50 for this molecule: Cc1cccc2cc(CNc3ncnc4[nH]cnc34)nc(OC3CCN(C(C)C)CC3)c12 [Compound 10]
Result block: < 100 nM

Query block: Look up IC50 for this molecule: C[C@H](Nc1ncnc2[nH]cnc12)c1cc2cccc(Cl)c2c(N2CCN(S(C)(=O)=O)C[C@H]2C)n1 [Compound 86]
Result block: < 1000 nM

Query block: Look up IC50 for this molecule: CC(Nc1ncnc2[nH]cnc12)c1cc2cccc(Cl)c2c(CN2CCN(S(C)(=O)=O)CC2)n1 (stereo not shown) [Compound 59]
Result block: < 1000 nM

Query block: Look up IC50 for this molecule: Cc1cccc2cc(Cn3nc(-c4cn[nH]c4)c4c(N)ncnc43)nc(OC3CCN(C)CC3)c12 [Compound 3]
Result block: < 100 nM

Query block: Look up IC50 for this molecule: CCN1CCC(Oc2nc(Cn3nc(-c4cn[nH]c4)c4c(N)ncnc43)cc3cccc(C)c23)CC1 [Compound 7]
Result block: < 100 nM
